- studySystem: AtWRKY1-N (Arabidopsis, UniProt Q9SI37 108-169)
- Sequence (Q9SI37 108-169): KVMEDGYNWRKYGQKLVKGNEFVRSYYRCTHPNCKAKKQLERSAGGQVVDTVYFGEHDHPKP
- assayMethodText: ITC; ITC: 25 mM HEPES pH 7.0, 100 mM NaCl, 20 C, 0.25 mM protein into 0.026 mM DNA; EMSA: 25 mM HEPES pH 7.0, 100 mM NaCl, 5% glycerol, 6 pmol DNA in 6 ul, 4 C 20 min
- reportedConditions: protein: recombinant; tags: C-terminal His; blunt
measuredEndpoint: Kd (µM)

1) G7'C9' to A7'A9' (dsDNA) DNA 1: CGCCTTTTATCAGCGC DNA 2: GCGCTGATAAAAGGCG: 7.6
